target system: RARγ (Homo sapiens, UniProt P13631)
Construct: expressed in transfected cells; host or cells: HeLa
Sequence (P13631 whole entry, species assumed): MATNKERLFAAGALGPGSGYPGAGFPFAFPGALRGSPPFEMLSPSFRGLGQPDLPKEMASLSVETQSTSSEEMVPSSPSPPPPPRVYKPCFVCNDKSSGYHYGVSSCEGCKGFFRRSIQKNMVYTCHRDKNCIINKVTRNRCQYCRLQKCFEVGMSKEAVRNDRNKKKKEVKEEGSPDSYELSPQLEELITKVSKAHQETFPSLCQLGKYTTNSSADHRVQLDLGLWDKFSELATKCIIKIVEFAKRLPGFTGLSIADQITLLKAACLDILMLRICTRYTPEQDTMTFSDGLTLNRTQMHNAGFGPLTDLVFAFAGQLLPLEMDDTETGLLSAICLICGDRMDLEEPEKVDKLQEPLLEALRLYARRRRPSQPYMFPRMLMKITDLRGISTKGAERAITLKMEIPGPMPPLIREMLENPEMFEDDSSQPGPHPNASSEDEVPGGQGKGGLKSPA
test protocol: Receptor transactivation assay, RARγ (CAT reporter, HeLa cells)
Type: cell-based
Experimental: Activation of just one receptor and failure to activate another is the basis for selectivity/specificity. In the retinoid transactivation assay, HeLa cells are co-transfected with DNA encoding RAR α, β, or γ, and an RAR-responsive CAT (chloramphenicol acetyltransferase) reporter gene. Retinoid efficacy is measured by the concentration of induced CAT gene product as determined by ELISA assay. […] The mean EC50 value for each of the receptors is calculated using a computer generated induced-fit program.
Entries and their Transactivation ratio γ (EC50 of test compound / EC50 of retinoic acid)
measured metric: Transactivation ratio γ (EC50 of test compound / EC50 of retinoic acid)

molecule: CC1(C)CCC(C)(C)c2cc(C(O)C(=O)Nc3ccc(C(=O)O)cc3)ccc21 (stereo not shown)
value reported: 6.7

molecule: CC1(C)CCC(C)(C)c2cc(C(O)C(=O)Nc3ccc(C(=O)O)cc3O)ccc21 (stereo not shown)
value reported: 40

molecule: CC1(C)CCC(C)(C)c2cc(C(O)C(=O)Nc3ccc(C(=O)O)cc3Cl)ccc21 (stereo not shown)
value reported: 13.3

molecule: Cc1cc(C(=O)O)ccc1NC(=O)C(O)c1ccc2c(c1)C(C)(C)CCC2(C)C (stereo not shown)
value reported: 66.7
